target: SOS1 and KRAS G12D (protein-protein interaction) (Homo sapiens, UniProt Q07889); assay: KRAS::SOS1 AlphaScreen binding assay; details: values marked with * in the table; read-out: IC50 (SOS1)
IC50 values for the compounds below.

compound: COc1cc2nc(C)nc(N[C@H](C)c3cccc(C)c3)c2cc1-c1ccc(=O)[nH]c1 [I-101]
IC50: 0.028 µM

compound: Cc1nc(N[C@H](C)c2cccc(C(F)(F)F)c2)c2cc(-c3ccc(=O)[nH]c3)ccc2n1 [I-100]
IC50: 0.048 µM

compound: Cc1cccc([C@@H](C)Nc2nc(C)nc3ccc(-c4ccc(=O)[nH]c4)cc23)c1 [I-99]
IC50: 0.029 µM

compound: Cc1cccc([C@@H](C)Nc2nc(C)nc3ccc(-c4ccn(CC(=O)O)c(=O)c4)cc23)c1 [I-342]
IC50: 0.048 µM

* * *

target: SOS1 and KRAS G12D (protein-protein interaction) (Homo sapiens); assay: KRAS::SOS1 AlphaScreen binding assay; conditions: values marked with * in the table; read-out: IC50 (SOS1)

compound: CNC(=O)Cn1cc(-c2ccc3nc(C)nc(N[C@H](C)c4cccc(C(F)(F)F)c4)c3c2)ccc1=O [I-344]
readout unit: nM
IC50: 37
--
compound: Cc1cccc([C@@H](C)Nc2nc(C)nc3ccc([C@H]4CC[S@@](=N)(=O)CC4)cc23)c1 [I-331]
readout unit: nM
IC50: 25
--
compound: Cc1cccc([C@@H](C)Nc2nc(C)nc3ccc([C@H]4CC[S@](=N)(=O)CC4)cc23)c1 [I-332]
readout unit: nM
IC50: 18
--
compound: Cc1cccc([C@@H](C)Nc2nc(C)nc3ccc(-c4ccn(CC(=O)N(C)C)c(=O)c4)cc23)c1 [I-340]
readout unit: nM
IC50: 1
--
compound: COc1cc2nc(C)nc(N[C@H](C)c3cccc(C)c3)c2cc1-c1ccc(=O)n(CC(=O)N(C)C)c1 [I-335]
readout unit: nM
IC50: 27
--
compound: Cc1cccc([C@@H](C)Nc2nc(C)nc3ccc(-c4cc5n(n4)CCC(=O)N5)cc23)c1 [I-87]
readout unit: nM
IC50: 18
--
compound: Cc1nc(N[C@H](C)c2cccc(C(F)(F)F)c2)c2cc(-c3cc4n(n3)CCC(=O)N4)c(C)cc2n1 [I-89]
readout unit: nM
IC50: 34
--
compound: COCC(=O)N1CCC(c2ccc3nc(C)nc(N[C@H](C)c4cccc(C)c4)c3c2)CC1 [I-277]
readout unit: nM
IC50: 22
--
compound: Cc1cccc([C@@H](C)Nc2nc(C)nc3ccc(C4CCS(=N)(=O)CC4)cc23)c1 (stereo partly shown) [I-330]
readout unit: nM
IC50: 20
--
compound: Cc1cccc([C@@H](C)Nc2nc(C)nc3cc(C)c(-c4ccc(=O)n(C)c4)cc23)c1 [I-105]
readout unit: nM
IC50: 36
--
compound: Cc1nc(N[C@H](C)c2cc(N)cc(C(F)(F)F)c2)c2cc(-c3ccc(=O)n(C)c3)c(C)cc2n1 [I-107]
readout unit: nM
IC50: 4
--
compound: Cc1cccc([C@@H](C)Nc2nc(C)nc3ccc(-c4ccc(=O)n(CC(=O)N(C)C)c4)cc23)c1 [I-336]
readout unit: nM
IC50: 26
--
compound: Cc1nc(N[C@H](C)c2cc(N)cc(C(F)(F)F)c2)c2cc(-c3ccc(=O)n(C)c3)ccc2n1 [I-104]
readout unit: nM
IC50: 6
--
compound: Cc1nc(N[C@H](C)c2cccc(C(F)(F)F)c2)c2cc(-c3cc4n(n3)CCC(=O)N4)ccc2n1 [I-88]
readout unit: nM
IC50: 30
--
compound: COc1cc2nc(C)nc(N[C@H](C)c3cccc(C)c3)c2cc1-c1ccn(CC(=O)N(C)C)c(=O)c1 [I-338]
readout unit: nM
IC50: 39
--
compound: Cc1nc(N[C@H](C)c2cccc(C(F)(F)F)c2)c2cc(-c3ccc(=O)n(CC(N)=O)c3)ccc2n1 [I-343]
readout unit: nM
IC50: 40
